- System: HCC-2998 colon
- Experimental Details: NCI-60 one-dose screen, 48 h (100 = growth as untreated, 0 = no growth, -100 = all killed)
- Condition Set: 10 µM
Compounds without any hit were thinned out: in the full panel of roughly 83,000, 20% have a hit.
Assign criterion met to entries whose growth meets or exceeds 20%; assign criterion not met to the rest.

- Chem Smiles: "C[N+](C)(CCOC(c1ccccc1)c1ccccc1)CC(=O)OCc1ccccc1"
  Study Target: "HCC-2998 colon"
  Category: "criterion met"
- Chem Smiles: "CCN1CCN(c2cc(C)nc(N(CCCNc3ccnc4cc(Cl)ccc34)Cc3cccs3)n2)CC1"
  Study Target: "HCC-2998 colon"
  Category: "criterion not met"
- Chem Smiles: "CC[C@H](CO)Nc1nc(NCc2ccccc2)c2ncn(C(C)C)c2n1"
  Study Target: "HCC-2998 colon"
  Category: "criterion met"

Turning to the following molecule.
[Q] Please tell me: is the molecule Nc1ncnc2c1ccn2-c1cccc(NC(=O)c2ccc(N3CCOCC3)c(C(F)(F)F)c2)c1 at or over 20% in terms of growth?
[A] criterion met

###

The following compounds are shown together with reported growth values.
- Tested on: M14 melanoma
- Experimental Details: NCI-60 one-dose screen, 48 h (100 = growth as untreated, 0 = no growth, -100 = all killed)
- Condition Set: 10 µM unless noted
- Method: Growth inhibition of the M14 human tumor cell line is measured as a screen for anti-cancer activity. Cells are grown in 96 well plates and exposed to the test compound for 48 hours. Compounds are tested at a single concentration, which is 10^-5 M for most compounds. The reported endpoint is percent growth (GI% or GIPRCNT), where numbers from 0 - 100% represent growth inhibition, and numbers from -100% - 0 represent cell death. For example, a value of 40 represents 60% growth inhibition. […]
Compounds without any hit were thinned out: in the full panel of roughly 83,000, 20% have a hit.
Please respond with the number in % and leave the unit unwritten.

Reference set, count: 6
- Compound: "NC(=O)c1c(OCc2c(F)cc(Br)cc2F)nsc1NC(=O)NCCCCN1CCCC1"
  Study Target: "M14 melanoma"
  growth (%): -76.1
- Compound: "CN(C[C@@H]1COCCO1)S(=O)(=O)Nc1ccc2ccc3ncc(-c4cnn(C)c4)cc3c(=O)c2c1"
  Study Target: "M14 melanoma"
  growth (%): 35.3
- Compound: "CNc1ncc2cc(-c3cc(NC(=O)NCCC(C)(C)C)c(F)cc3C)c(C)nc2n1"
  Study Target: "M14 melanoma"
  growth (%): -12.4
- Compound: "Oc1ccc(/C=N/Nc2nnc(N/N=C/c3ccc(O)cc3O)c3ccccc23)c(O)c1"
  Study Target: "M14 melanoma"
  growth (%): -52.7
- Compound: "CC(C)Nc1cc(-c2c[nH]c(C(=O)N[C@H](CO)c3cccc(Cl)c3)c2)c(Cl)cn1"
  Study Target: "M14 melanoma"
  growth (%): 3.28
- Compound: "COc1cc(OC)c(C(=O)/C=C/c2cc3c(cc2OCc2ccccc2)OC(C)(C)CC3)cc1CC=C(C)C"
  Study Target: "M14 melanoma"
  growth (%): 68.2

Documented growth of Clc1ccc(Nc2nccc(Nc3ccc4[nH]ncc4c3)n2)cc1 : 43.8

Documented growth of COc1cc2c3c(c1)nc(C)n3CCC2 : 100

Documented growth of CNC(=O)c1cc(Oc2cccc3nc(Nc4ccc(Cl)c(F)c4)ccc23)ccn1 : 80.2

Documented growth of CCN(CC)CCN1C(=O)c2cccc3c(-c4ccc5c(c4)ncn5C4CCCCC4)ccc(c23)C1=O : -62.8

Documented growth of N#Cc1c(-c2ccc(C(F)(F)F)cc2)c(F)c(NCCC2CCC(O)C2)n2c1nc1ccccc12 (configuration not stated) : 18.4

Documented growth of COc1ccc(S(=O)(=O)N(C(C)=O)c2ccccc2/C=C/c2cc[n+]([O-])cc2)cc1 : -14.3

Documented growth of O=C(Cc1ccc(/C=C/C(=O)c2ncc[nH]2)cc1)Nc1ccc(S(F)(F)(F)(F)F)cc1 : 67.7

Documented growth of O=C(NCCO)Nc1ccc(-c2nc(N3CCOCC3)c3cccn3n2)cc1 : 6.09

Documented growth of CCN1CCN(CCCN(C[C@H]2Cc3ccccc3CN2)[C@H]2CCCc3cccnc32)CC1 : 87.3

Documented growth of COc1cc2c(Oc3ccc4[nH]c(C)cc4c3F)ncnc2cc1OCCCN1CCCC1 : 92.8

Documented growth of CC(=O)Nc1cccc(-n2c(=O)n(C3CC3)c(=O)c3c(Nc4ccc(I)cc4F)n(C)c(=O)c(C)c32)c1 : 1.71

Documented growth of CCN(CC)CCOc1ccc(/C(=C(\C)c2ccc(Cl)cc2)c2ccc(Cl)cc2)cc1 : 71

Documented growth of C[C@@H](Oc1cc(-n2cnc3ccc(CN4CCN(C)CC4)cc32)sc1C(N)=O)c1ccccc1C(F)(F)F : 15.7

Documented growth of Cc1cn(-c2cc(NC(=O)c3ccc(C)c(Nc4nccc(-c5cccnc5)n4)c3)cc(C(F)(F)F)c2)cn1 : 8.64

Documented growth of COc1cc2c(cc1OCCCCCCN1CCN(c3ncnc4ccccc34)CC1)N=CC1CCCN1C2=O (configuration not stated) : -85.5

Documented growth of CC(N)C(Cc1ccc(Cl)cc1)c1ccc(Cl)cc1 (configuration not stated) : 47.6

###

- System: A549/ATCC NSCLC
- Experimental Details: NCI-60 one-dose screen, 48 h (100 = growth as untreated, 0 = no growth, -100 = all killed)
- Condition Set: 10 µM unless noted
Compounds without any hit were thinned out: in the full panel of roughly 83,000, 20% have a hit.
Assay Endpoint: growth (%)
Please respond with the number in % and leave the unit unwritten.

Reference set, count: 3
- Molecule: "Cc1ccc2oc(=O)cc(-c3cc(-c4cc5ccccc5oc4=O)nc(N)c3C#N)c2c1"
  growth / %: 54.8
- Molecule: "CCCCn1c(C)nc2ccc(Nc3nc(N4CCN(C)CC4)nc4nc[nH]c34)cc21"
  growth / %: 94.2
- Molecule: "COc1ccc(OC)c(NC2=C(SCCc3ccccc3)C(=O)c3ccccc3C2=O)c1"
  growth / %: 87.2

Entry CC12O[C@H](C[C@@H](OC(=O)CCC(=O)O)[C@H]1O)n1c3ccccc3c3c4c(c5c6ccccc6n2c5c31)C(=O)NC4=O , A549/ATCC NSCLC data, growth value: 13.8

Entry Cc1cc(O)c2c(c1)C1OC(=O)CCCCCN1C1=C2C(=O)c2cccc(OC3CC(O)C(O)C(C)O3)c2C1=O (centres undefined) , A549/ATCC NSCLC data, growth value: 59.9

Entry COc1ccc(-c2nc(N)ncc2Oc2ccccc2OC)c(O)c1 , A549/ATCC NSCLC data, growth value: 35.7

Entry C[C@@H](NC(=O)c1ncnc(N)c1Cl)c1ncc(C(=O)Nc2cc(C(F)(F)F)c(Cl)cn2)s1 , A549/ATCC NSCLC data, growth value: 53.2

Entry CCn1c(-c2nonc2N)nc2c(C#CC(C)(C)O)ncc(OC[C@H]3CCCNC3)c21 , A549/ATCC NSCLC data, growth value: 87.8

Entry ClCc1ccc(-c2ccc(Cn3cnc4c(Cl)nc(Cl)nc43)cc2)cc1 , A549/ATCC NSCLC data, growth value: -41.5

###

- Test system: KM12 colon
- Experimental Details: NCI-60 one-dose screen, 48 h
- Condition Set: 10 µM unless noted
Compounds without any hit were thinned out: in the full panel of roughly 83,000, 20% have a hit. Calls of active or inactive are those of the source. How the source made its calls: active means growth percent below 10; inactive means the rest.
Entry note: the call must match one of 1 (yes) for active, 0 (no) for inactive

- Compound: "COC(=O)CNC(=O)[C@@H](OC)[C@@H]1Cc2cc3cc(OC4CC(OC5CC(O)C(O)C(C)O5)C(O)C(C)O4)c(C)c(O)c3c(O)c2C(=O)[C@H]1OC1CC(OC2CC(OC3CC(C)(O)C(O)C(C)O3)C(O)C(C)O2)C(O)C(C)O1 (some centres undefined)"
  Category: "1 (yes)"
- Compound: "C[C@@H](C[C@H](CCO)c1cc(C(F)(F)F)cc(C(F)(F)F)c1)c1ccc2ccccc2c1"
  Category: "0 (no)"
- Compound: "CC1(O)CCC2CC3OC3(C)CCC3OC3(C)C(O)CC1C2(C)C (centres undefined)"
  Category: "0 (no)"
- Compound: "O=C(NCCO)Nc1ccc(-c2nc(N3CCOCC3)c3cccn3n2)cc1"
  Category: "0 (no)"
- Compound: "COCC(=O)NC/C=C/c1ccc2ncnc(Nc3ccc(Oc4ccc(C)nc4)c(C)c3)c2c1"
  Category: "0 (no)"
- Compound: "CSC1=C(N)C(=O)c2[nH]cc(CO)c2C1=N"
  Category: "1 (yes)"

[Q] Recorded test outcome, item CCN(CC)CCN1C(=O)c2cccc3c(-c4ccc5c(c4)ncn5C4CCCCC4)ccc(c23)C1=O
[A] 0 (no)

[Q] Recorded test outcome, item CNC(=O)c1ccccc1Nc1nc(Nc2ccc3c(c2OC)CCC[C@H](N2CCN(CCO)CC2)C3)ncc1Cl
[A] 1 (yes)

[Q] Recorded test outcome, item COC(=O)C1CCc2sc3ncnc(Nc4cn[nH]c4C(=O)Nc4ccc(CN5CCN(C)CC5)cc4)c3c21 (centres undefined)
[A] 1 (yes)

[Q] Recorded test outcome, item COc1ccc(Cc2cc(-c3ccccc3C)n[nH]c2=O)cc1
[A] 0 (no)

[Q] Recorded test outcome, item CCCCCCCC12Cc3ccccc3C1=Nc1c(c3ccccc3n1C)C2=O (centres undefined)
[A] 0 (no)

[Q] Recorded test outcome, item O=C(c1ccc(F)c(F)c1Nc1ccc(I)cc1F)N1CC(O)([C@@H]2CCCCN2)C1
[A] 0 (no)

[Q] Recorded test outcome, item CCn1cc(-c2ccnc3[nH]c(-c4cccc(CN(C)C)c4)cc23)c(-c2ccc(NC(=O)N(C)C)cc2)n1
[A] 0 (no)

[Q] Recorded test outcome, item Cc1[nH]n(C(N)=S)c(=O)c1N=Nc1ccc(S(=O)(=O)Nc2ccncn2)cc1
[A] 0 (no)

[Q] Recorded test outcome, item CC1CCC(n2cnc3c(Cl)ncnc32)O1 (centres undefined)
[A] 0 (no)

[Q] Recorded test outcome, item N#CC(C#N)=NO
[A] 0 (no)

Reference source: PubChem BioAssay (NCI)
